assay: Relative quantification of urinary aPM (UPLC-QTOF-MS, creatinine-normalized) after controlled α-pinene inhalation
Assay type: in vivo, human
condition_context: human urine after α-pinene inhalation
Description: Briefly, for controlled inhalation experiments, eight healthy volunteers were exposed to α-pinene in a custom-built exposure chamber via inhalation from a 15 ml conical tube, containing approximately 100 μl α-pinene, for a duration of 10 min. Urine samples were collected before exposure (0 h) and 0.5, 1, 2, 3, and 4 h after exposure. […] Relative quantification of aPM was performed based on the peak responses normalized to urinary creatinine levels. […]
reported_endpoint: Maximum response (highest peak response across all urine samples)

[[record]]
molecule = "CC1(C)C2CC1C(OC1OC(C(=O)O)C(O)C(O)C1O)C=C2C(=O)O (single isomer, unassigned) [aPM5a, Myrtenic acid-4-O-GlcA]"
observed_measurement = 4787

[[record]]
molecule = "CC1(C)C2CC1C(OC1OC(C(=O)O)C(O)C(O)C1O)C=C2C(=O)O (single isomer, unassigned) [aPM5g, Myrtenic acid-4-O-GlcA]"
observed_measurement = 77327

[[record]]
molecule = "CC1(C)C2CC=C(COC3OC(C(=O)O)C(O)C(O)C3O)C1C2 (stereo not drawn) [aPM2c, myrtenol glucuronide]"
observed_measurement = 154854

[[record]]
molecule = "CC1(C)C2CC=C(C(=O)OC3OC(C(=O)O)C(O)C(O)C3O)C1C2 (single isomer, unassigned) [aPM3b, Myrtenic acid-GlcA]"
observed_measurement = 352366

[[record]]
molecule = "CC1(C)C2CCC(C(=O)OC3OC(C(=O)O)C(O)C(O)C3O)C1C2 (single isomer, unassigned) [aPM4c, Dihydromyrtenic acid-GlcA]"
observed_measurement = 5156

[[record]]
molecule = "CC1(C)C2CC1C(OC1OC(C(=O)O)C(O)C(O)C1O)C=C2C(=O)O (single isomer, unassigned) [aPM5d, Myrtenic acid-4-O-GlcA]"
observed_measurement = 5115

[[record]]
molecule = "CC1(C)C2CCC(C(=O)OC3OC(C(=O)O)C(O)C(O)C3O)C1C2 (single isomer, unassigned) [aPM4d, Dihydromyrtenic acid-GlcA]"
observed_measurement = 183468

[[record]]
molecule = "CC1(C)C2CC=C(C(=O)OC3OC(C(=O)O)C(O)C(O)C3O)C1C2 (single isomer, unassigned) [aPM3a, Myrtenic acid-GlcA]"
observed_measurement = 50629

[[record]]
molecule = "CC1(C)C2CC1C(OC1OC(C(=O)O)C(O)C(O)C1O)C=C2C(=O)O (single isomer, unassigned) [aPM5b, Myrtenic acid-4-O-GlcA]"
observed_measurement = 22121


====

assay: aPM in mouse urine after i.p. injection of (+)-α-pinene or (−)-α-pinene
Assay type: in vivo, mice (C57BL/6)
condition_context: mouse urine; enantiomer specificity
reported_endpoint: R/(R+S) (%)

[[record]]
compound = "CC1(C)C2CCC(C(=O)OC3OC(C(=O)O)C(O)C(O)C3O)C1C2 (single isomer, unassigned) [aPM4b, Dihydromyrtenic acid-GlcA]"
reported_endpoint = "R/(R+S)"
observed_measurement = 0.0

[[record]]
compound = "CC1(C)C2CC1C(OC1OC(C(=O)O)C(O)C(O)C1O)C=C2C(=O)O (single isomer, unassigned) [aPM5e, Myrtenic acid-4-O-GlcA]"
reported_endpoint = "R/(R+S)"
observed_measurement = 0

[[record]]
compound = "CC1(C)C2CCC(C(=O)OC3OC(C(=O)O)C(O)C(O)C3O)C1C2 (single isomer, unassigned) [aPM4c, Dihydromyrtenic acid-GlcA]"
reported_endpoint = "R/(R+S)"
observed_measurement = 0.0

[[record]]
compound = "CC1(C)C2CCC(C(=O)OC3OC(C(=O)O)C(O)C(O)C3O)C1C2 (single isomer, unassigned) [aPM4e, Dihydromyrtenic acid-GlcA]"
reported_endpoint = "R/(R+S)"
observed_measurement = 24.1

[[record]]
compound = "CC1(C)C2CCC(C(=O)OC3OC(C(=O)O)C(O)C(O)C3O)C1C2 (single isomer, unassigned) [aPM4a, Dihydromyrtenic acid-GlcA]"
reported_endpoint = "R/(R+S)"
observed_measurement = 0.0

[[record]]
compound = "CC1(C)C2CC=C(C(=O)OC3OC(C(=O)O)C(O)C(O)C3O)C1C2 (single isomer, unassigned) [aPM3a, Myrtenic acid-GlcA]"
reported_endpoint = "R/(R+S)"
observed_measurement = 0


====

assay: Kinetic modeling of urinary aPM with a pseudo one-compartment nonlinear mixed-effects model after α-pinene inhalation
Type: in vivo, human
condition_context: inhaled or intranasal; human urine after α-pinene inhalation; pseudo one-compartment model; read-out: Elimination t1/2 (converted)
Text: In this equation, i represents the participant index, j the urine sample index, C the creatinine-normalized peak response, and t the sample collection time ( h).Ka denotes the first-order generation constant ( h^−1 ), and Ke denotes the first-order elimination rate constant h^−1 . F indicates the fraction of specific aPM relative to absorbed α-pinene. […] Because input data were derived from relative quantification, absolute values of D , V , and F were not available. […]
reported_endpoint: half-life (min)

[[record]]
compound = "CC1(C)C2CC1C(C(=O)O)=CC2=O (stereo not drawn)"
observed_measurement = 72

[[record]]
compound = "CC1(C)C2CC=C(COC3OC(C(=O)O)C(O)C(O)C3O)C1C2 (stereo not drawn) [aPM2c, myrtenol glucuronide]"
observed_measurement = 30

[[record]]
compound = "CC1=CC(OC2OC(C(=O)O)C(O)C(O)C2O)C2CC1C2(C)C (stereo not drawn) [aPM2b, verbenol glucuronide]"
observed_measurement = 35.4


====

assay: Urinary aPM after 4 h greenness (forest) exposure
Assay type: in vivo, human
Set-up: unit not given here
condition_context: human urine, greenness exposure
Measured Maximum response values are reported for all entries that follow.
reported_endpoint: Maximum response

[[record]]
compound = "CC1(C)C2CC=C(COC3OC(C(=O)O)C(O)C(O)C3O)C1C2 (stereo not drawn) [aPM2c, myrtenol glucuronide]"
observed_measurement = 1435

[[record]]
compound = "CC1(C)C2CC1C(OC1OC(C(=O)O)C(O)C(O)C1O)C=C2C(=O)O (single isomer, unassigned) [aPM5b, Myrtenic acid-4-O-GlcA]"
observed_measurement = 89

[[record]]
compound = "CC1(C)C2CC1C(OC1OC(C(=O)O)C(O)C(O)C1O)C=C2C(=O)O (single isomer, unassigned) [aPM5g, Myrtenic acid-4-O-GlcA]"
observed_measurement = 98

[[record]]
compound = "CC1(C)C2CC=C(C(=O)OC3OC(C(=O)O)C(O)C(O)C3O)C1C2 (single isomer, unassigned) [aPM3b, Myrtenic acid-GlcA]"
observed_measurement = 2516

[[record]]
compound = "CC1(C)C2CC1C(C(=O)O)=CC2=O (stereo not drawn) [aPM1, Myrtenic acid-4-one]"
observed_measurement = 3544

[[record]]
compound = "CC1(C)C2CC1C(OC1OC(C(=O)O)C(O)C(O)C1O)C=C2C(=O)O (single isomer, unassigned) [aPM5c, Myrtenic acid-4-O-GlcA]"
observed_measurement = 136


====

assay: Urinary aPM after 4 h greenness (forest) exposure
Format: in vivo, human
condition_context: human urine, greenness exposure
reported_endpoint: Frequency of occurrence (%)

[[record]]
compound = "CC1(C)C2CC1C(OC1OC(C(=O)O)C(O)C(O)C1O)C=C2C(=O)O (single isomer, unassigned) [aPM5c, Myrtenic acid-4-O-GlcA]"
reported_endpoint = "Frequency of occurrence"
observed_measurement = 37.5

[[record]]
compound = "CC1(C)C2CC1C(OC1OC(C(=O)O)C(O)C(O)C1O)C=C2C(=O)O (single isomer, unassigned) [aPM5b, Myrtenic acid-4-O-GlcA]"
reported_endpoint = "Frequency of occurrence"
observed_measurement = 6.3

[[record]]
compound = "CC1(C)C2CC1C(OC1OC(C(=O)O)C(O)C(O)C1O)C=C2C(=O)O (single isomer, unassigned) [aPM5a, Myrtenic acid-4-O-GlcA]"
reported_endpoint = "Frequency of occurrence"
observed_measurement = 0.0

[[record]]
compound = "CC1(C)C2CC=C(COC3OC(C(=O)O)C(O)C(O)C3O)C1C2 (centres unmarked) [aPM2c, myrtenol glucuronide]"
reported_endpoint = "Frequency of occurrence"
observed_measurement = 31.3

[[record]]
compound = "CC1(C)C2CC1C(OC1OC(C(=O)O)C(O)C(O)C1O)C=C2C(=O)O (single isomer, unassigned) [aPM5d, Myrtenic acid-4-O-GlcA]"
reported_endpoint = "Frequency of occurrence"
observed_measurement = 0.0

[[record]]
compound = "CC1(C)C2CC=C(C(=O)OC3OC(C(=O)O)C(O)C(O)C3O)C1C2 (single isomer, unassigned) [aPM3a, Myrtenic acid-GlcA]"
reported_endpoint = "Frequency of occurrence"
observed_measurement = 0.0

[[record]]
compound = "CC1(C)C2CCC(C(=O)OC3OC(C(=O)O)C(O)C(O)C3O)C1C2 (single isomer, unassigned) [aPM4d, Dihydromyrtenic acid-GlcA]"
reported_endpoint = "Frequency of occurrence"
observed_measurement = 68.8

[[record]]
compound = "CC1(C)C2CC1C(OC1OC(C(=O)O)C(O)C(O)C1O)C=C2C(=O)O (single isomer, unassigned) [aPM5f, Myrtenic acid-4-O-GlcA]"
reported_endpoint = "Frequency of occurrence"
observed_measurement = 0.0

[[record]]
compound = "CC1(C)C2CCC(C(=O)OC3OC(C(=O)O)C(O)C(O)C3O)C1C2 (single isomer, unassigned) [aPM4b, Dihydromyrtenic acid-GlcA]"
reported_endpoint = "Frequency of occurrence"
observed_measurement = 0.0

[[record]]
compound = "CC1(C)C2CC1C(C(=O)O)=CC2=O (centres unmarked)"
reported_endpoint = "Frequency of occurrence"
observed_measurement = 31.3

[[record]]
compound = "CC1(C)C2CCC(C(=O)OC3OC(C(=O)O)C(O)C(O)C3O)C1C2 (single isomer, unassigned) [aPM4a, Dihydromyrtenic acid-GlcA]"
reported_endpoint = "Frequency of occurrence"
observed_measurement = 6.3

